tested on: HeLa, 35S-Met/Cys protein incorporation toxicity, 3 h; test: 35S-Met/Cys incorporation reduction in HeLa – HeLa cells, cytotoxicity control for PMI inhibitor project, late-stage follow-up (AID 1620)
The source made the active and inactive calls.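 How the source made its calls: active means toxicity graded low, moderate or high, meaning less radioactive sulfur built into protein than in solvent-only controls; inactive means the rest.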
Valid outcomes are listed here; reply with one: active, inactive

- O=[N+]([O-])c1ccc(N=c2ssnc2Cl)c([N+](=O)[O-])c1: inactive
- O=c1c2cc(F)ccc2sn1-c1ccccc1: active
- Clc1cccc(N=c2ssnc2Cl)c1: active
- O=c1c2ccccc2sn1-c1ccccc1: inactive
- Clc1nssc1=Nc1ccccc1: inactive

Input: Could you please tell me the result logged for `CN(C)c1ccc(N=c2ssnc2Cl)cc1` in this assay?
Output: active

Input: Then `CCc1cc(CC)c(N=c2ssnc2Cl)c(CC)c1` ?
Output: active

Input: Repeat with `COc1ccc(OC)c(N=c2ssnc2Cl)c1`
Output: inactive

Input: Lookup `Cc1ccc(C=Nn2c(-c3ccncc3)n[nH]c2=S)cc1`
Output: inactive

Input: Next record, please: `Nc1ccccc1N=c1ssnc1Cl`
Output: inactive

Input: Repeat with `COc1cc(N=c2ssnc2Cl)c(OC)cc1Cl`
Output: active

Input: And what about the compound `COc1cc(-c2nc(=S)[nH][nH]2)cc(OC)c1OC` ?
Output: inactive

Input: What do you have for `S=c1nc(-c2ccccc2Br)[nH][nH]1` ?
Output: inactive

Input: Same lookup for `CN(C)c1cccc(N=c2ssnc2Cl)c1` , please.
Output: active

Input: Next compound up: `O=c1c2ccccc2sn1-c1ccc(Cl)cc1`
Output: active

Input: And the next one, `Clc1nss/c1=N\c1nc2ccccc2s1` ?
Output: active

Input: Repeat with `O=c1c2ccccc2sn1-c1ccc2ccccc2c1`
Output: active

Input: Subsequent entry: `Clc1nss/c1=N\c1nncs1`
Output: active

Input: Lookup `Clc1ccc(N=c2ssnc2Cl)cc1Cl`
Output: active

Input: Okay, and `Cc1ccc(C)c(-n2sc3ccccc3c2=O)c1` ?
Output: active

Input: Do the same for `O=c1c2c([N+](=O)[O-])cc([N+](=O)[O-])cc2sn1-c1ccc(F)cc1` please
Output: active

Input: Also check `O=C(NCc1ccccc1)c1cccc(-n2sc3ccccc3c2=O)c1`
Output: inactive

Input: Try `COc1cccc(-n2sc3ccccc3c2=O)c1` next.
Output: active

Input: Follow-up entry: `Clc1ccc(Nc2ccccc2N=c2ssnc2Cl)cc1`
Output: active

Input: # iterate: `O=[N+]([O-])c1ccc(N=c2ssnc2Cl)c2ccccc12`
Output: active

Input: Param item: `COc1ccc(N=c2ssnc2Cl)cc1OC`
Output: active

Input: And `Cc1cccc(N=c2ssnc2Cl)c1` ?
Output: active

Input: Quick one: `O=c1c2ccccc2sn1-c1cc(S(=O)(=O)N2CCOCC2)ccc1N1CCOCC1`
Output: active

---

system: HeLa, 35S-Met/Cys protein incorporation toxicity, 3 h; test: 35S-Met/Cys incorporation reduction in HeLa – HeLa cells, cytotoxicity control for PMI inhibitor project, late-stage follow-up (AID 1620)
Activity calls are given as the source filed them.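 The calls were made as follows: active = toxicity graded low, moderate or high, meaning less radioactive sulfur built into protein than in solvent-only controls; inactive = the rest.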
Allowed answers: active, inactive

Please review the entries below; each comes with its answer.
- Clc1nssc1=Nc1ccc(Br)cc1: active
- N#Cc1ccc(N=c2ssnc2Cl)cc1: inactive
- Cc1ccc(C)c(N2Cc3ccccc3C2=O)c1: active
- Cc1ccc(N=c2ssnc2Cl)nc1: active
- O=c1c2ccccc2sn1-c1cc(S(=O)(=O)N2CCOCC2)ccc1N1CCCC1: active

Input: Look up the recorded call for `Cc1ccc(N=c2ssnc2Cl)cc1[N+](=O)[O-]` in this test.
Output: active

Input: Repeat for the following compound: N#CC1=C2SCN(Cc3ccccc3)CN2C(=O)CC1c1ccc2c(c1)OCO2 (stereo unspecified)
Output: inactive

Input: What would you report for `COc1ccc2c(=O)n(C3CCCC3)sc2c1` ?
Output: inactive

Input: Would you mind doing `O=c1c2ccccc2sn1-c1cccc(C(F)(F)F)c1` as well?
Output: active

Input: Now the compound `Cc1ccc(-n2sc3ccccc3c2=O)cc1S(=O)(=O)N1CCCCC1`
Output: active

Input: Item: `Cc1cccc(-n2sc3ccccc3c2=O)c1`
Output: active

---

tested on: HeLa, 35S-Met/Cys protein incorporation toxicity, 3 h; test: 35S-Met/Cys incorporation reduction in HeLa – HeLa cells, cytotoxicity control for PMI inhibitor project, late-stage follow-up (AID 1620)
Active and inactive are the calls of the source.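 How the source made its calls: active means toxicity graded low, moderate or high, meaning less radioactive sulfur built into protein than in solvent-only controls; inactive means the rest.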
Write down the outcome that applies. Available outcomes: class 1 (active), class 0 (inactive)

• O=C(O)CCn1cc(C=C2C(=O)NC(=S)NC2=O)c(-c2cccc(Br)c2)n1 = class 0
• Cc1ccc(C)n1-c1nc(=S)[nH][nH]1 = class 0

From here, focus on the item given below.
Input: Kindly provide the recorded test outcome for the following molecule: `Cc1ccc(N=c2ssnc2Cl)c([N+](=O)[O-])c1`
Output: class 1

---

tested on: HeLa, 35S-Met/Cys protein incorporation toxicity, 3 h; assay: 35S-Met/Cys incorporation reduction in HeLa – HeLa cells, cytotoxicity control for PMI inhibitor project, late-stage follow-up (AID 1620)
Calls of active or inactive are those of the source.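 How the source made its calls: active means toxicity graded low, moderate or high, meaning less radioactive sulfur built into protein than in solvent-only controls; inactive means the rest.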
API: response.call in label 1 = active, label 0 = inactive

* Cc1ccc(C)c(-n2[nH]c3ccccc3c2=O)c1 | label 0
* O=c1c2ccccc2sn1-c1cccc(Cl)c1 | label 1
* COc1cc(N=c2ssnc2Cl)cc(OC)c1 | label 0
* CN(C)c1cccc(-n2sc3ccccc3c2=O)c1 | label 0
* O=c1c2c([N+](=O)[O-])cc([N+](=O)[O-])cc2sn1-c1ccccc1F | label 1

Input: Name the outcome recorded for `OCc1ccccc1N=c1ssnc1Cl` in the assay.
Output: label 0

Input: Then what about the compound `Clc1nss/c1=N\c1nccs1` ?
Output: label 0

---

test system: HeLa, 35S-Met/Cys protein incorporation toxicity, 3 h; test: 35S-Met/Cys incorporation reduction in HeLa – HeLa cells, cytotoxicity control for PMI inhibitor project, late-stage follow-up (AID 1620)
Activity calls are given as the source filed them.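 The calls were made as follows: active = toxicity graded low, moderate or high, meaning less radioactive sulfur built into protein than in solvent-only controls; inactive = the rest.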
Select the correct class. Options are YES = active, NO = inactive and nothing else.

Some solved entries appear below for comparison.
* S=c1nc(C2COc3ccccc3O2)[nH][nH]1 (stereo not drawn) | NO
* O=c1c2ccccc2sn1-c1cccc(S(=O)(=O)Nc2ccc(Cl)cc2)c1 | YES
* S=c1nc(-c2cccc(Cl)c2)[nH][nH]1 | NO
* O=c1c2ccc(O)cc2sn1C1CCCC1 | NO
* Cc1ccc(C)c(-n2sc3cc(F)ccc3c2=O)c1 | YES
* O=C1c2ccccc2SC1c1ccccc1 (stereo not drawn) | YES
* CN(C)S(=O)(=O)c1cccc(-n2sc3ccccc3c2=O)c1 | YES
* CCOc1ccc(-c2nc(=S)[nH][nH]2)cc1 | NO

Input: Fill in: this test's call for `COc1ccc(-c2nc(=S)[nH][nH]2)cc1` is ___
Output: NO

Input: And then `O=c1c2ccccc2sn1-c1ccc(Cl)c(S(=O)(=O)N2CCOCC2)c1` , what is it?
Output: YES

---

tested on: HeLa, 35S-Met/Cys protein incorporation toxicity, 3 h; assay: 35S-Met/Cys incorporation reduction in HeLa – HeLa cells, cytotoxicity control for PMI inhibitor project, late-stage follow-up (AID 1620)
The source made the active and inactive calls.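 Rule for the calls: active = toxicity graded low, moderate or high, meaning less radioactive sulfur built into protein than in solvent-only controls; inactive = the rest.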
Measured property: outcome

Solved cases (5 shown):
• O=c1c2ccccc2sn1-c1cccc(I)c1 = active; highly toxic
• COc1ccc(-c2nc(=S)[nH][nH]2)cc1OC = inactive; no toxicity
• Cc1[nH]n(-c2ccccc2)c(=S)c1C=Nc1cccc([N+](=O)[O-])c1 = inactive; no toxicity
• CCSc1n[nH]c(=S)s1 = inactive; no toxicity
• Cc1ccc(N=c2ssnc2Cl)cc1 = inactive; no toxicity

Attention now shifts to the item below.
Input: outcome for `Clc1ccc(N=c2ssnc2Cl)cc1` ?
Output: active; highly toxic

---

system: HeLa, 35S-Met/Cys protein incorporation toxicity, 3 h; assay: 35S-Met/Cys incorporation reduction in HeLa – HeLa cells, cytotoxicity control for PMI inhibitor project, late-stage follow-up (AID 1620)
The source made the active and inactive calls.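 Rule for the calls: active = toxicity graded low, moderate or high, meaning less radioactive sulfur built into protein than in solvent-only controls; inactive = the rest.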
Just give me one of these, please: active, inactive

Input: In this assay, the call recorded for `O=c1c2ccccc2sn1-c1nccs1` was what?
Output: inactive

Input: Request: `O=c1c2c([N+](=O)[O-])cc([N+](=O)[O-])cc2sn1-c1ccc(F)c(Cl)c1`
Output: inactive

Input: What about this molecule? `Cc1ccnc(-n2sc3ccccc3c2=O)n1`
Output: inactive

Input: Note, next up: `S=c1nc(-c2cccc(Br)c2)[nH][nH]1`
Output: inactive

Input: Please answer likewise for `COC(=O)c1cccc(-n2sc3ccccc3c2=O)c1`
Output: active

Input: Quick one: `Oc1ccc(N=c2ssnc2Cl)cc1`
Output: inactive
